assayOverview: AUC (0 to infinity) in Sprague-Dawley rat plasma at 2 mg/kg, iv
Type: ADME, organism-based
Design: time infinity, dose 2 mg/kg, route intravenous
property: AUC(0-inf)
Number first, unit second: that is the form wanted.

Q: Report AUC(0-inf) for Cc1ccc(CCCO)c(NCc2ccc3nc(NCCCN4CCOCC4)n(Cc4nc(C)ccc4O)c3c2)c1 please.
Result: 0.354 µg·h/mL

* * *

assayOverview: Volume of distribution in Sprague-Dawley rat plasma at 2 mg/kg, iv
Format: ADME, organism-based
Parameters: dose 2 mg/kg, route intravenous
property: Vd
Report field: quantity (unit follows the number).

Q: Param item = Cc1ccc(CCCO)c(NCc2ccc3nc(NCCCN4CCOCC4)n(Cc4nc(C)ccc4O)c3c2)c1 ; retrieve measured Vd.
Result: 79.3 L/kg

* * *

assayOverview: Cmax in Sprague-Dawley rat plasma at 10 mg/kg, po
Assay type: ADME, organism-based
Parameters: dose 10 mg/kg, route oral
property: Cmax (ng/mL)
Dear colleague, please return just the value in ng/mL, with no unit written.

Q: Consider the molecule shown here: Cc1ccc(CCCO)c(NCc2ccc3nc(NCCCN4CCOCC4)n(Cc4nc(C)ccc4O)c3c2)c1 What is its recorded Cmax?
Result: 47.3

* * *

assayOverview: Half life in Sprague-Dawley rat lung
Type: ADME, organism-based
# strict inequality: half-life < 20 h yields criterion met, everything else yields criterion not met

Cc1cc(C)cc(NCc2ccc3nc(NC4CCN(CCO)CC4)n(Cc4nc(C)ccc4O)c3c2)c1 : criterion not met

Next:
Q: Dear colleague, could you confirm whether half-life of Cc1ccc(CCCO)c(NCc2ccc3nc(NCCCN4CCOCC4)n(Cc4nc(C)ccc4O)c3c2)c1 falls below 20 h? Thanks.
Result: criterion not met

* * *

assayOverview: Absolute bioavailability in Sprague-Dawley rat plasma at 10 mg/kg, po
Type: ADME, organism-based
property: bioavailability

Q: I am curious: what bioavailability value has been reported for Cc1ccc(CCCO)c(NCc2ccc3nc(NCCCN4CCOCC4)n(Cc4nc(C)ccc4O)c3c2)c1 ?
Result: 14%

* * *

assayOverview: AUC (0 to infinity) in Sprague-Dawley rat plasma at 10 mg/kg, po
Type: ADME, organism-based
Set-up: time infinity, dose 10 mg/kg, route oral
property: AUC(0-inf) (ng·h/mL)
Write the answer as a number in ng·h/mL, unit excluded.

Q: Can you look up the measured AUC(0-inf) of Cc1ccc(CCCO)c(NCc2ccc3nc(NCCCN4CCOCC4)n(Cc4nc(C)ccc4O)c3c2)c1 for me?
Result: 246

* * *

assayOverview: Half life in Sprague-Dawley rat plasma at 2 mg/kg, iv
Type: ADME, organism-based
Parameters: dose 2 mg/kg, route intravenous
property: half-life (h)
Please respond with the number in h and leave the unit unwritten.

Q: Which half-life is listed for Cc1ccc(CCCO)c(NCc2ccc3nc(NCCCN4CCOCC4)n(Cc4nc(C)ccc4O)c3c2)c1 ?
Result: 10.3

* * *

assayOverview: Plasma clearance in Sprague-Dawley rat at 2 mg/kg, iv
Assay type: ADME, organism-based
Parameters: dose 2 mg/kg, route intravenous
property: clearance (mL/min/kg)
Field format: number, assumed mL/min/kg, no unit text.

Q: Name the reported clearance value associated with the compound Cc1ccc(CCCO)c(NCc2ccc3nc(NCCCN4CCOCC4)n(Cc4nc(C)ccc4O)c3c2)c1
Result: 90

* * *

assayOverview: Half life in Sprague-Dawley rat lung
Assay type: ADME, organism-based
property: half-life (min)
Report as a plain number; the unit min is understood.

Recorded results for 4 compounds are shown here.
Cc1ccc(O)c(Cn2c(NCCCN3CCOCC3)nc3ccc(CNc4ccccc4CCO)cc32)n1 : 1210
Cc1cccc(NCc2ccc3nc(NC4CCN(CCO)CC4)n(Cc4nc(C)ccc4O)c3c2)c1 : 4060
Cc1cc(C)cc(N(CCO)Cc2ccc3nc(NCCCN4CCOCC4)n(Cc4nc(C)ccc4O)c3c2)c1 : 1180
Cc1cc(C)cc(N(CCCC(N)=O)Cc2ccc3nc(NCCCN4CCOCC4)n(Cc4nc(C)ccc4O)c3c2)c1 : 624

As a next step, examine the compound that follows.
Q: Quick check: half-life of Cc1cc(C)cc(NCc2ccc3nc(NCCCN4CCOCC4)n(Cc4nc(C)ccc4O)c3c2)c1 ?
Result: 822
